Consider the following compounds; for each one, report its TGI.
Test system: MCF7 breast
Test: NCI tumour cell line growth inhibition, 48 h

INSERT INTO results (compound, readout_value) VALUES
  ('Cc1cn2c(C)csc2c1P(=O)(OC(C)C)OC(C)C', '> 100 µM');

Return reported TGI values for all items listed beneath this line.
1. COc1ccc(N=NC(=Nc2ccc(F)cc2)c2ccc(N(CCC#N)CCC#N)cc2)cc1
2. O=C(Nc1ccc(Cl)c(Cl)c1)Nc1ccccc1O
3. COc1ccc(N=C2C(=S)N(c3ccc(OC)cc3)/C(=N/S(=O)(=O)c3ccccc3)N2c2ccccc2)cc1
4. O=C(OCc1ccc2c(Cl)cc(Cl)c(O)c2n1)N1CCN(C(=O)c2cc3cc(F)ccc3[nH]2)CC1
5. O=C(CNCc1ccccc1)Oc1c(Cl)c(Cl)c(Cl)c(Cl)c1Cl
6. NS(=O)(=O)c1ccc(NC(NC(=O)C(C(F)(F)F)C(F)(F)F)(C(F)(F)F)C(F)(F)F)cc1
7. O=C(NCc1ccc(S(=O)(=O)c2cc(F)cc(F)c2)cc1)c1ccc2nccn2c1

1: > 100 µM; 2: 21.3 µM; 3: 35.8 µM; 4: > 100 µM; 5: > 100 µM; 6: > 100 µM; 7: > 100 µM

Return reported TGI values for all items listed beneath this line.
1. Cn1c(=O)c2c(ncn2CC(=O)Nc2ccc(-c3ccccc3)nn2)n(C)c1=O
2. CCCCCCCCCCN1CCC(N2CCCCC2)CC1
3. c1ccc(C2=Nn3c(CCCCCCCCc4nnc5n4N=C(c4ccccc4)CS5)nnc3SC2)cc1
4. CC(C)(C)C(=O)C(Cc1ccccc1)C(=O)C(C)(C)C

> 100 µM
3.64 µM
> 100 µM
> 100 µM

Return reported TGI values for all items listed beneath this line.
1. CCOC(CN(C)C(=S)Nc1cccc2ccccc12)OCC
2. CN1COCc2cc3cc4c(cc3nc21)OCCO4
3. CCCCC/C(C=O)=C\c1ccccc1
4. O=[N+]([O-])c1ccc(CSCc2ccc(Cl)cc2)cc1
5. CC1(C)OC2CC(=O)OCC23C1CC(=O)C1(C)C3CCC2(C)C(c3ccoc3)OC(=O)C3OC321 (stereo not given)
6. CCC(=O)Nc1ccc(N=NN(C)C)cc1
7. NC(=O)c1ncn2c1NC(=O)CC2
8. O=C1CS(=O)C23c4cc5ccccc5n4CCC2CCCN13 (stereo not given)

["> 10 µM", "> 100 µM", "> 100 µM", "> 100 µM", "> 70.3 µM", "> 100 µM", "> 100 µM", "> 100 µM"]
